- assayOverview: acute LD50
- testParameters: mouse, in vivo, ip; mice, intraperitoneally
recordedEndpoint: LD50

Data request: Param item = O=C1CCC2(CCC(=O)c3ccccc32)C(=O)N1 (stereo not shown) [Example 1] ; retrieve measured LD50.
Data returned: > 2000 mg/kg

###

Measured TD50, listed per entry.
- assayOverview: motor coordination, rotorod method
- Assay type: in vivo
- testParameters: mouse, mice, oral, read-out: Loss of Motor Coordination, ED50
Quick note: give the figure in mg/kg, leave out the unit.

- O=C1CCC2(CCC(=O)c3ccccc32)C(=O)N1 (centres unmarked): 900

Data request: Param item = CN1C(=O)CCC2(CCC(=O)c3cc(Cl)ccc32)C1=O (centres unmarked) ; retrieve measured TD50.
Data returned: 285
